Entry source: patent US20240415918A1

- tested_target: CCK-B receptors (CHO-CCK) (Homo sapiens, UniProt P32239)
- Construct: expressed in transfected cells; host or cells: CHO (CHO-CCK model cells)
- Sequence (P32239 whole entry): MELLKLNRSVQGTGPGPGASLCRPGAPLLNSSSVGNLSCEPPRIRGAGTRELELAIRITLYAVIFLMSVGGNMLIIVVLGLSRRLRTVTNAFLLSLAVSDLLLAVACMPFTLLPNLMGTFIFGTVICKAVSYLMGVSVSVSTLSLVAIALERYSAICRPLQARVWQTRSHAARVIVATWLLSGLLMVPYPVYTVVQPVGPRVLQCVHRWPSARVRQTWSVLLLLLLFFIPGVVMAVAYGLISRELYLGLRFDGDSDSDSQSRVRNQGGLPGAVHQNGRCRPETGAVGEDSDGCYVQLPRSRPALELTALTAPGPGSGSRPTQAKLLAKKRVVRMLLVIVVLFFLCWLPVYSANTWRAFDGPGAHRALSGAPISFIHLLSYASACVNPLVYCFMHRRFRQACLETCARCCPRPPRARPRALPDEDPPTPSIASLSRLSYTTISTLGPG
- experiment_description: Calcium flux (Fluo-8) agonist test on CHO-CCK model cells
- Type: cell-based
- experimental_conditions: compound at 1 nM, CHO-CCK cells
- Experimental: • To detect changes in intracellular calcium ion concentration after the compound acts on model cells containing CCK-B receptors (CHO-CCK). • 1. The compound was formulated to a 10 mM mother liquor with DMSO, and then diluted into a series of 9 concentrations with a 3-fold gradient to form a 1000× stock solution. […] • 1. […] In the process of incubating cells, the compounds to be detected were prepared with HHBS. • 5. […]
*1 amine or outer side, *2 acyl side, *3 side chain or, on linkers, in order; H or OH if unused. Where a SMILES comes first, the peptide text is derived from it. [ ]: non-standard residue; d: D form. The star is where a group is joined. X1 = O=C([C@@]1(O)C[C@@H](O)[C@H](N[*:1])C([C@@H](O)[C@@H](O)CO)O1)[*:2]; Trp(1-Me) = Cn1cc(C[C@H](N)C(=O)O)c2ccccc21; NMeW = CN[C@@H](Cc1c[nH]c2ccccc12)C(=O)O; Phe(3-Br) = N[C@@H](Cc1cccc(Br)c1)C(=O)O; dNMeW = CN[C@H](Cc1c[nH]c2ccccc12)C(=O)O; Aad = N[C@@H](CCCC(=O)O)C(=O)O; Aoc(2) = CCCCCC[C@H](N)C(=O)O; Nle = CCCC[C@H](N)C(=O)O; Cbz = O=C(OCc1ccccc1)*
Listed next: entries and their corresponding % Act-Ave @ 1 nM.

{"columns": ["compound", "unit_of_measure", "% Act-Ave @ 1 nM"],
 "data": [
  ["CCCC[C@H](NC(=O)[C@H](Cc1c[nH]c2ccccc12)N(C)C(=O)[C@@]1(O)C[C@@H](O)[C@H](NC(C)=O)C([C@@H](O)[C@@H](O)CO)O1)C(=O)N[C@@H](CC(=O)O)C(=O)N[C@@H](Cc1cccc(Br)c1)C(N)=O (stereo partly drawn) [HT-274, Sia-(N-Me-Trp)-Nle Asp-Phe(3-Br)-NH2] (Ac-[X1][NMeW][Nle]D[Phe(3-Br)]-NH2)", "%", 0.10],
  ["CCCCCC[C@H](NC(=O)[C@H](Cc1cn(C)c2ccccc12)NC(=O)OCc1ccccc1)C(=O)N[C@@H](CC(=O)O)C(=O)N[C@@H](Cc1cccc(Br)c1)C(N)=O [HT-279, Cbz-(1-Me-Trp)-Oa-Asp-Phe(3-Br)-NH2] (Cbz-[Trp(1-Me)][Aoc(2)]D[Phe(3-Br)]-NH2)", "%", "−0.19"],
  ["CCCC[C@H](NC(=O)[C@H](Cc1c[nH]c2ccccc12)N(C)C(C)=O)C(=O)N[C@@H](CCCC(=O)O)C(=O)N[C@@H](Cc1cccc(Br)c1)C(N)=O [HT-271, Ac-Trp-Nle-Aa-Phe(3-Br)-NH2] (Ac-[NMeW][Nle][Aad][Phe(3-Br)]-NH2)", "%", 40.66],
  ["CCCC[C@H](NC(=O)[C@@H](Cc1c[nH]c2ccccc12)N(C)C(C)=O)C(=O)N[C@@H](CCCC(=O)O)C(=O)N[C@@H](Cc1cccc(Br)c1)C(N)=O [HT-270, Ac-D-Trp-Nle-Aa-Phe(3-Br)-NH2] (Ac-[dNMeW][Nle][Aad][Phe(3-Br)]-NH2)", "%", "−0.03"],
  ["CCCCCC[C@H](NC(C)=O)C(=O)N[C@@H](CC(=O)O)C(=O)N[C@@H](Cc1cccc(Br)c1)C(N)=O [HT-281, Ac-Oa-Asp-Phe(3-Br)-NH2] (Ac-[Aoc(2)]-Asp-[Phe(3-Br)]-NH2)", "%", "−0.09"],
  ["CSCC[C@H](NC(C)=O)C(=O)N[C@@H](CC(=O)O)C(=O)N[C@@H](Cc1cccc(Br)c1)C(N)=O [HT-282, Ac-Met-Asp-Phe(3-Br)-NH2] (Ac-Met-Asp-[Phe(3-Br)]-NH2)", "%", 0.13],
  ["CC(=O)N[C@@H](CC(=O)O)C(=O)N[C@@H](Cc1ccccc1)C(N)=O [HT-284, Ac-Asp-Phe-NH2] (Ac-Asp-Phe-NH2)", "%", 0.01],
  ["CCCC[C@H](NC(=O)[C@H](Cc1c[nH]c2ccccc12)N(C)C(C)=O)C(=O)N[C@@H](CC(=O)O)C(=O)N[C@@H](Cc1cccc(Br)c1)C(N)=O [HT-273, Ac-(N-Me-Trp)-Nle-Asp-Phe(3-Br)-NH2] (Ac-[NMeW][Nle]D[Phe(3-Br)]-NH2)", "%", 52.14],
  ["CCCC[C@H](NC(=O)[C@H](Cc1c[nH]c2ccccc12)N(C)C(C)=O)C(=O)N[C@@H](CCCC(=O)O)C(=O)N[C@@H](Cc1cccc(Br)c1)C(N)=O [HT-272, Ac-(N-Me-Trp)-Nle-Aa-Phe(3-Br)-NH2] (Ac-[NMeW][Nle][Aad][Phe(3-Br)]-NH2)", "%", "−0.33"]
]}
